The reported numbers originate from patent US20120178694A1.

Experimental Target: biotinylated C3b (UniProt P01024)
Method: SPR on immobilised C3b; ratio relative to peptide 14
Bridge positions count the residues as written; N and C are the ends. Square brackets hold non-standard residues; d marks the D form. Trp(1-Me) = Cn1cc(C[C@H](N)C(=O)O)c2ccccc21; Sar = CNCC(=O)O
# rkd listing for each entry below

- Binder: "Ac-ICV[Trp(1-Me)]QDW[Sar]AHRCL-NH2 (disulfide 2-12; SMILES CC[C@H](C)[C@H](NC(C)=O)C(=O)N[C@H]1CSSC[C@@H](C(=O)N[C@@H](CC(C)C)C(N)=O)NC(=O)[C@H](CCCNC(=N)N)NC(=O)[C@H](Cc2c[nH]cn2)NC(=O)[C@H](C)NC(=O)CN(C)C(=O)[C@H](Cc2c[nH]c3ccccc23)NC(=O)[C@H](CC(=O)O)NC(=O)[C@H](CCC(N)=O)NC(=O)[C@H](Cc2cn(C)c3ccccc23)NC(=O)[C@H](C(C)C)NC1=O) [Ac-Ic[CV(1-MeW)QDW(N-MeG)AHRC]L-NH2]"
  rkd: "1.9 fold"
- Binder: "Ac-ICV[Trp(1-Me)]QDWGAHRCI-NH2 (disulfide 2-12; SMILES CC[C@H](C)[C@H](NC(=O)[C@@H]1CSSC[C@H](NC(=O)[C@@H](NC(C)=O)[C@@H](C)CC)C(=O)N[C@@H](C(C)C)C(=O)N[C@@H](Cc2cn(C)c3ccccc23)C(=O)N[C@@H](CCC(N)=O)C(=O)N[C@@H](CC(=O)O)C(=O)N[C@@H](Cc2c[nH]c3ccccc23)C(=O)NCC(=O)N[C@@H](C)C(=O)N[C@@H](Cc2c[nH]cn2)C(=O)N[C@@H](CCCNC(=N)N)C(=O)N1)C(N)=O, Peptide 14 scaffold with Gly^8, Ile^13; also called 16 (6)) [peptide 16]"
  rkd: "1 fold"
